biological target: Nitric oxide synthase, brain (Homo sapiens); assay: Inhibition of recombinant N-terminal His-tagged human nNOS expressed in Escherichia coli assessed as L-[3H]-citrulline formation using L-[3H]-arginine as substrate after 30 mins by liquid scintillation spectroscopy
pIC50: −log10 of the molar value.
MEASURED_QUANTITY: pIC50

In the examples that follow, each entry is paired with its recorded pIC50.
                                   compound                         target_under_test  measured_quantity  numeric_value
0  CCCNC(=S)NCCC(O)c1ccccc1N (stereo unspecified)  Nitric oxide synthase, brain (Homo sapiens)              pIC50           3.06
1  CNC(=S)NCCC(O)c1cc(Cl)ccc1N (stereo unspecified)  Nitric oxide synthase, brain (Homo sapiens)              pIC50           3.15

(I) CNC(=S)NCCC(O)c1ccccc1N (stereo unspecified)
(II) CNC(=S)NCCC(O)c1cc(OC)ccc1N (stereo unspecified)
(III) CCNC(=S)NCCC(O)c1cc(Cl)ccc1N (stereo unspecified)
Sort these compounds on pIC50 so the largest reading comes first. Arrange the labels as the request states and list them.
II, I, III
(II: 3.89, I: 3.46, III: 3.11)

====

molecular target: Nitric oxide synthase 1 (Homo sapiens) (UniProt P29475); experiment: Inhibition of recombinant nNOS (unknown origin) assessed as L-[3H]-citrulline formation at 1 mM using L-[3H]-arginine as substrate after 30 mins by liquid scintillation spectroscopy
Sequence (P29475 whole entry): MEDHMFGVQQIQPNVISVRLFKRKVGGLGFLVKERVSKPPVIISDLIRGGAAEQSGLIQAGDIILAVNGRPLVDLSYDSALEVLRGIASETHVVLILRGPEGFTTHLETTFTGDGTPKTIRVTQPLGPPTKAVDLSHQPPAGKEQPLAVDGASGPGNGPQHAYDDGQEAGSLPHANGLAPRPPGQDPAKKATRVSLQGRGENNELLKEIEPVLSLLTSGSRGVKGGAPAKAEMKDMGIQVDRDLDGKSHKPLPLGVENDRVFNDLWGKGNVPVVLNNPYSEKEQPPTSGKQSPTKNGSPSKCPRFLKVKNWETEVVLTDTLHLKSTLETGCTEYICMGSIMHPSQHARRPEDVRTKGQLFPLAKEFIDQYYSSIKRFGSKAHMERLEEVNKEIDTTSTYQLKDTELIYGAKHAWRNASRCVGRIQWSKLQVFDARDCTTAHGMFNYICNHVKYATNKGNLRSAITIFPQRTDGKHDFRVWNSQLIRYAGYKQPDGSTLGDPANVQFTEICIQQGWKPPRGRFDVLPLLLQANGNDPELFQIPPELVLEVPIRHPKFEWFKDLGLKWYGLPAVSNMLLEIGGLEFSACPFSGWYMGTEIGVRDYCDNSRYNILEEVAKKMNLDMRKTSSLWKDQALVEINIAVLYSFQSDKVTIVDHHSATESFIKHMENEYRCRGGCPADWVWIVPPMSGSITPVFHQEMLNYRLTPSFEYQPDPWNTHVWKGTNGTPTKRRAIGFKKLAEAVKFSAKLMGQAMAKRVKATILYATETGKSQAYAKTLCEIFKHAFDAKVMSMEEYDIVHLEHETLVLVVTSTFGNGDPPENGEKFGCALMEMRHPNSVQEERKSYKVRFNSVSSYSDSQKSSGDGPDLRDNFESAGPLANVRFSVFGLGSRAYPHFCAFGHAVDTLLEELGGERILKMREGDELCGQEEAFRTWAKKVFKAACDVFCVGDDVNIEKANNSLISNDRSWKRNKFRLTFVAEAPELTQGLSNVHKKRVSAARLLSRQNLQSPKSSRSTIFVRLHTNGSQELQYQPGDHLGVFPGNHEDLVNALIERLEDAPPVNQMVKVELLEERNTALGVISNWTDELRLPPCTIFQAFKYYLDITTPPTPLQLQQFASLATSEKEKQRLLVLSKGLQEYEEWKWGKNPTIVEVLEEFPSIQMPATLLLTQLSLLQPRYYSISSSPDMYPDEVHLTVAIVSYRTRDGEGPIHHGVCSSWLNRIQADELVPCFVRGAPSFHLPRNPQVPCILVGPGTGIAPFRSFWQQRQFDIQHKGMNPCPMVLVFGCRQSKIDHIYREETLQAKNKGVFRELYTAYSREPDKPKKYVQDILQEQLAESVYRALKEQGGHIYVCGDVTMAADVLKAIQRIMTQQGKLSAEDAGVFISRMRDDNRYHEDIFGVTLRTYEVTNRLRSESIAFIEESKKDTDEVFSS
MEASURED_QUANTITY: inhibition (%)

In the examples that follow, each entry is paired with its recorded inhibition.
                                   compound                         target_under_test  quantity_unit  numeric_value
0              CNC(=S)NCCC(=O)c1cc(OC)ccc1N  Nitric oxide synthase 1 (Homo sapiens) (UniProt P29475)              %             46
1  CCCNC(=O)NCCC(O)c1cc(OC)ccc1N (centres undefined)  Nitric oxide synthase 1 (Homo sapiens) (UniProt P29475)              %           15.8
2  CCNC(=S)NCCC(O)c1ccccc1N (centres undefined)  Nitric oxide synthase 1 (Homo sapiens) (UniProt P29475)              %           44.8
3  CCNC(=O)NCCC(O)c1ccccc1N (centres undefined)  Nitric oxide synthase 1 (Homo sapiens) (UniProt P29475)              %           7.81
4  CNC(=S)NCCC(O)c1ccccc1N (centres undefined)  Nitric oxide synthase 1 (Homo sapiens) (UniProt P29475)              %           70.2
5  CCNC(=O)NCCC(O)c1cc(Cl)ccc1N (centres undefined)  Nitric oxide synthase 1 (Homo sapiens) (UniProt P29475)              %           15.2

(a) CNC(=S)NCCC(O)c1cc(OC)ccc1N (centres undefined)
(b) CCNC(=O)NCCC(O)c1cc(OC)ccc1N (centres undefined)
(c) COc1ccc(N)c(C(O)CCNC(=O)Nc2ccccc2)c1 (centres undefined)
(d) CCCNC(=S)NCCC(O)c1cc(OC)ccc1N (centres undefined)
Sort these compounds on inhibition so the largest reading comes first. Arrange the labels as the request states and list them.
a, b, c, d
(a: 80.5%, b: 43%, c: 12.1%, d: 6.02%)

(P) CCCNC(=S)NCCC(O)c1cc(Cl)ccc1N (centres undefined)
(Q) CCNC(=O)NCCC(=O)c1cc(Cl)ccc1N
Task for the reader: decide whether P or Q has the larger inhibition. Bench note: the answer is the label of the chosen record.
P

(I) CNC(=S)NCCC(O)c1cc(Cl)ccc1N (centres undefined)
(II) Nc1ccccc1C(O)CCNC(=O)Nc1ccccc1 (centres undefined)
Task for the reader: decide whether I or II has the larger inhibition. Bench note: the answer is the label of the chosen record.
I

====

target: Nitric oxide synthase 1 (Homo sapiens) (UniProt P29475); assay: Inhibition of recombinant nNOS (unknown origin) assessed as L-[3H]-citrulline formation at 1 mM using L-[3H]-arginine as substrate after 30 mins by liquid scintillation spectroscopy
MEASURED_QUANTITY: inhibition (%)

                                   molecule  measured_quantity  quantity_unit  numeric_value
0  CCCNC(=O)NCCC(O)c1ccccc1N (stereo not given)         inhibition              %              7

(a) CCNC(=S)NCCC(O)c1cc(Cl)ccc1N (stereo not given)
(b) CCCNC(=O)NCCC(O)c1cc(Cl)ccc1N (stereo not given)
Task for the reader: decide whether a or b has the larger inhibition. Bench note: the answer is the label of the chosen record.
a

====

molecular target: Nitric oxide synthase, inducible (Homo sapiens) (UniProt P35228); experiment: Inhibition of recombinant N-terminal His-tagged human iNOS expressed in Escherichia coli assessed as L-[3H]-citrulline formation at 1 mM using L-[3H]-arginine as substrate after 30 mins by liquid scintillation spectroscopy
Sequence (P35228 whole entry): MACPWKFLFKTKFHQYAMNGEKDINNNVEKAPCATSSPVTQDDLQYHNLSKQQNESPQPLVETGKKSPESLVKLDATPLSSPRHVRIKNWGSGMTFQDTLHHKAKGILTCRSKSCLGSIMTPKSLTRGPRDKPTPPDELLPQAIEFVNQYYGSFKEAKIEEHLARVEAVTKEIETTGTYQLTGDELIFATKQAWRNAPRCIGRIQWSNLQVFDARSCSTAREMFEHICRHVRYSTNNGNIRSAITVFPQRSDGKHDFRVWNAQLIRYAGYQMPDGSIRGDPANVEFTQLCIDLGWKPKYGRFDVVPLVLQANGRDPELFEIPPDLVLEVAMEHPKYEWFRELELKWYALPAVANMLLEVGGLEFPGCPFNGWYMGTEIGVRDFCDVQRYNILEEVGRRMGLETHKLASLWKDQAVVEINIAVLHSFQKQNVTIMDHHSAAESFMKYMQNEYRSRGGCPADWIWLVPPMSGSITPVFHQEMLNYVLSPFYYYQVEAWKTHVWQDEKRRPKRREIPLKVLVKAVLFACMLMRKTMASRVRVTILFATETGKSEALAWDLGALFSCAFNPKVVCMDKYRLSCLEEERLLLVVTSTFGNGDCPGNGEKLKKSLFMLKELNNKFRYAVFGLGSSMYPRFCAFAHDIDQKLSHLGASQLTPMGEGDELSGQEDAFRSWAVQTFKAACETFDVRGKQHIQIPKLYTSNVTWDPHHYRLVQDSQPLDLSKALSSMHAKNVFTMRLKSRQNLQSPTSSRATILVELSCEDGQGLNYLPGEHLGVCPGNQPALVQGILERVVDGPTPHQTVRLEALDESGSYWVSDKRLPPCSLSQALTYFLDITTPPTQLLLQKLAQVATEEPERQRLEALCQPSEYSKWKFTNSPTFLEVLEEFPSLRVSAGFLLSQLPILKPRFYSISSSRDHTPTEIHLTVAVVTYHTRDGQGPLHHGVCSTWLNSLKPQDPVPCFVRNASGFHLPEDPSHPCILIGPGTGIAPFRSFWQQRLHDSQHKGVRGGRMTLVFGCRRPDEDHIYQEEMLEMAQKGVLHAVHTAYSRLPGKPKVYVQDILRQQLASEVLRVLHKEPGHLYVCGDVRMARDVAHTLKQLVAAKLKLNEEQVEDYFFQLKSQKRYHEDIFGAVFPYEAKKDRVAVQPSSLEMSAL
MEASURED_QUANTITY: inhibition (%)

In the examples that follow, each entry is paired with its recorded inhibition.
                                   molecule                         target_under_test  numeric_value
0             COc1ccc(N)c(C(=O)CCNC(C)=O)c1  Nitric oxide synthase, inducible (Homo sapiens) (UniProt P35228)           30.7
1  CCNC(=O)NCCC(O)c1ccccc1N (stereo unspecified)  Nitric oxide synthase, inducible (Homo sapiens) (UniProt P35228)           18.3
2  CCNC(=S)NCCC(O)c1cc(Cl)ccc1N (stereo unspecified)  Nitric oxide synthase, inducible (Homo sapiens) (UniProt P35228)           60.4
3  CCNC(=O)NCCC(O)c1cc(Cl)ccc1N (stereo unspecified)  Nitric oxide synthase, inducible (Homo sapiens) (UniProt P35228)           33.9

(1) CCCC(=O)NCCC(=O)c1cc(OC)ccc1N
(2) COc1ccc(N)c(C(O)CCNC(=O)Nc2ccccc2)c1 (stereo unspecified)
Which of these two has the smaller recorded inhibition: 1 or 2 ? Bench note: the answer is the label of the chosen record.
1

====

Each record here notes measured pIC50.
target: Nitric oxide synthase, inducible (Homo sapiens) (UniProt P35228); assay: Inhibition of recombinant iNOS (unknown origin) assessed as L-[3H]-citrulline formation using L-[3H]-arginine as substrate after 30 mins by liquid scintillation spectroscopy
Sequence (P35228 whole entry, looked up): as the sequence (P35228 whole entry) above
pIC50: −log10 of the molar value.

In the examples that follow, each entry is paired with its recorded pIC50.
>>> df
                                   compound  measured_quantity  result
0  CCCNC(=S)NCCC(O)c1ccccc1N (stereo not drawn)              pIC50  < 3.00
1  CNC(=S)NCCC(O)c1ccccc1N (stereo not drawn)              pIC50  < 3.00

Observed pIC50 on Nitric oxide synthase, inducible (Homo sapiens) (UniProt P35228) for CNC(=S)NCCC(O)c1cc(Cl)ccc1N (stereo not drawn) , please.
< 3.00
